Please go through the items and note down their log2 (Sample B/Sample A).
Target: T1, native human ESRRG protein (Estrogen-receptor related receptor gamma) (human, UniProt P62508 229-458, limits assumed)
T1 construct: the screened protein is called 'native human ESRRG protein'; also called ESSRG; ERRγ
T1 sequence (looked up): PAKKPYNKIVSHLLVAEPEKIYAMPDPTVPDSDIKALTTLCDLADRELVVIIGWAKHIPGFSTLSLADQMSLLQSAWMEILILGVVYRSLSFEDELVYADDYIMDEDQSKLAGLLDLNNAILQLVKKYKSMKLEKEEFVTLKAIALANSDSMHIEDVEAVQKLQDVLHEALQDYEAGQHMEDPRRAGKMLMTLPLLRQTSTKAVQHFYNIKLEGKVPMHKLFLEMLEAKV
Assay: peptide microarray, Iteration 2; bound ESRRG detected with fluorescent anti-ESRRG mAb
Where no end group is shown, it is not given here.

The binder listed as Ac-AFNMYLDE shows log2 (Sample B/Sample A) equal to 1.93

The binder listed as Ac-LFKLKQND shows log2 (Sample B/Sample A) equal to 2.34

The binder listed as Ac-LFLLQQDD shows log2 (Sample B/Sample A) equal to 3.47

The binder listed as Ac-WLLLKHGL shows log2 (Sample B/Sample A) equal to 2.01

The binder listed as Ac-NFNYLLPH shows log2 (Sample B/Sample A) equal to 4.88

The binder listed as Ac-FWKGHFDF shows log2 (Sample B/Sample A) equal to 2.66

The binder listed as Ac-DNNYLLLL shows log2 (Sample B/Sample A) equal to 3.84

The binder listed as Ac-GKSYPRHR shows log2 (Sample B/Sample A) equal to 2.46
